target_entity: human TLR8 (Homo sapiens, UniProt Q9NR97)
Construct: HEK293 cells stably co-transfected with the appropriate hTLR, MD2, and secreted alkaline phosphatase (sAP); expressed in transfected cells; host or cells: HEK293 (HEK-Blue™)
Sequence (Q9NR97 27-1041): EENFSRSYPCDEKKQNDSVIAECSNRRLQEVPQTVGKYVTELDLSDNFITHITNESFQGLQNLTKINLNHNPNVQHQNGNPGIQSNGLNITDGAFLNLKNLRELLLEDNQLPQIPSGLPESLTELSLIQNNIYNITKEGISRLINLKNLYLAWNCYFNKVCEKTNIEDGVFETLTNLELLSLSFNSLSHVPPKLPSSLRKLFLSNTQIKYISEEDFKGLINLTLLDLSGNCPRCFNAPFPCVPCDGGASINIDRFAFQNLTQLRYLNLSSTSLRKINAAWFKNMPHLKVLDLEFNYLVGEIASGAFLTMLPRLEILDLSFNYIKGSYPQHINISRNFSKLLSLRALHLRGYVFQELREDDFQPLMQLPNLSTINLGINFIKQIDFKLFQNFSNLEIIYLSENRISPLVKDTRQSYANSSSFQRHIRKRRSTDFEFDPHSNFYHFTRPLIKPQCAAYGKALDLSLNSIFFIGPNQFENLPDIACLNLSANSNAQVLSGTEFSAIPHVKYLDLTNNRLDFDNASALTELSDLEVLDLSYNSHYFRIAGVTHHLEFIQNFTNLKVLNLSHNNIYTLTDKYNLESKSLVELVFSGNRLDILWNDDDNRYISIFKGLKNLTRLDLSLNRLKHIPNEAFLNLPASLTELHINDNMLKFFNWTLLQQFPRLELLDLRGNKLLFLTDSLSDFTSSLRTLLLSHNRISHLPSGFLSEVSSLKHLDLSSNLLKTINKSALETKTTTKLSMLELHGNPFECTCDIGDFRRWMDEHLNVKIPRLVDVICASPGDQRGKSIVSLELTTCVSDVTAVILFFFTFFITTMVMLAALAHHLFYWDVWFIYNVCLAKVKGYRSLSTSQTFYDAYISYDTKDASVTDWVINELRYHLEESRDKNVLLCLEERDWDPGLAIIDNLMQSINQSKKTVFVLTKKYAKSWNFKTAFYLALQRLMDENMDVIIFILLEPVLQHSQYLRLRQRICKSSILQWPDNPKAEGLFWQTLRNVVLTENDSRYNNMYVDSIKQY
assay_method_text: human TLR8-specific HEK-Blue reporter gene assay (NF-κB induction)
Assay type: cell-based
test_context: human TLR8-specific reporter gene assays, Table 1
attribute_measured: Agonistic Activity EC50 (μM) TLR8

Guide cases for Agonistic Activity EC50 (μM) TLR8, answers given:
1. CCCCCOc1cc(N)nc2ccccc12 [Compound 24b, 4-(Pentyloxy)quinolin-2-amine]	Inactive
2. CCCCc1cc(N)nc2ccccc12 [Compound 27a, 4-Butylquinolin-2-amine]	Inactive
3. CCCCCc1c(N)nc2ccccc2c1CCC(C)C [Compound 21c, 4-Isopentyl-3-pentylquinolin-2-amine]	Inactive
4. CCCCCCc1cc2ccccc2nc1N [Compound 14c, 3-Hexylquinolin-2-amine]	Inactive

Please fill in: Agonistic Activity EC50 (μM) TLR8 reported for CCCCOc1cc(N)nc2ccccc12 [Compound 24a, 4-(Butyloxy)quinolin-2-amine] = Inactive

Please fill in: Agonistic Activity EC50 (μM) TLR8 reported for CCCCCc1cc(N)nc2ccccc12 [Compound 27b, 4-Pentylquinolin-2-amine] = Inactive

Please fill in: Agonistic Activity EC50 (μM) TLR8 reported for CCCCCc1c(N)nc2ccccc2c1CC [Compound 21b, 4-Ethyl-3-pentylquinolin-2-amine] = Inactive

Data credit: patent US10654807B2
